# assay-explanation: Excitation and fluorescence wavelength by FL4500 fluorescence spectrophotometer
# condition: aqueous solution, 10 mg/mL DMSO solution diluted 500-fold with distilled water (Table 2)
recorded-metric: Excitation wavelength λex
Answer as a number with no unit attached.

Worked examples follow.
Entry COc1ccc2cc(-c3nc4ccccc4[nH]3)c(=O)oc2c1 [Compound 20] : reported Excitation wavelength λex = ? 380

Which Excitation wavelength λex is reported for this molecule? COc1cccc2cc(-c3nc4ccccc4[nH]3)c(=O)oc12 [Compound 22] 360

Item CCN(CC)c1ccc2cc(-c3nc4ccc(C)cc4o3)c(=O)oc2c1 [Compound 27] has what recorded Excitation wavelength λex? 472

Consider the molecule shown here: Cc1ccc2oc(=O)c(-c3nc4ccccc4[nH]3)cc2c1 [Compound 24] What is its recorded Excitation wavelength λex? 380

So what's the measured Excitation wavelength λex for this one? CCN(CC)c1ccc2cc(-c3nc4cc(Cl)ccc4o3)c(=O)oc2c1 [Compound 23] 422

Continuing:
Reported Excitation wavelength λex, molecule CCN(CC)c1ccc2cc(-c3nc4ccccc4[nH]3)c(=N)oc2c1 [Compound 18] : ____ 464

Dear colleague, I am looking for the recorded Excitation wavelength λex of the following molecule: CCN(CC)c1ccc2cc(-c3nc4ccccc4s3)c(=O)oc2c1 [Compound 15] 469

Consider the molecule shown here: N=c1oc2ccc3ccccc3c2cc1-c1nc2ccccc2[nH]1 [Compound 17] What is its recorded Excitation wavelength λex? 410

Look up Excitation wavelength λex for this molecule: CCCN(CCC)c1ccc2cc(-c3nc4ccccc4[nH]3)c(=O)oc2c1 [Compound 25] 463

Looking for the measured Excitation wavelength λex of COc1ccc2cc(-c3nc4ccccc4[nH]3)c(=N)oc2c1 [Compound 16] , can you help? 380

Could you share which Excitation wavelength λex value was measured for O=c1oc2ccc3ccccc3c2cc1-c1nc2ccccc2[nH]1 [Compound 28] ? 410

---

# System: central nervous system tissues of juvenile zebrafish (7 dpf)
# assay-explanation: Labeling the central nervous system tissue of live 7 dpf juvenile zebrafish by immersion in labeling solution
# condition: 7 dpf juvenile zebrafish, labeling solution 1 μg/mL, one hour
recorded-metric: Labeling property

Would you mind telling me what Labeling property value was observed for CCN1C(=S)N(c2ccccc2)C(=O)/C1=C/C=C1/Sc2ccccc2N1CC ? ++

What does the record list as Labeling property for Cn1c(=O)cc2c3c(c(NCc4ccccc4)ccc31)C(=O)c1ccccc1-2 ? ++

For the molecule shown here, Cn1c(=O)cc2c3c(c(NC4CCCCC4)ccc31)C(=O)c1ccccc1-2 , give the reported Labeling property. ++

For the molecule O=C1OC2(c3ccc(O)cc3Oc3cc(O)ccc32)c2ccccc21 [Fluorescein, reference compound] , what Labeling property is on record? −

# input molecule: CCN(CC)c1ccc2cc3c(oc2c1)c(C#N)c(=O)n1c2ccccc2nc31 ; wanted: its Labeling property +

Param item = CCCCNc1ccc2c3c(cccc13)C(=O)N(CCCC)C2=O ; retrieve measured Labeling property. ++

Query (molecule): CCN1c2ccc(/C=C3/SC(=S)N(CCC(=O)O)C3=O)cc2C2CCCC21 (centres unmarked) ; field requested: Labeling property ++

Turning to the following molecule.
# query: Labeling property of entry CCN(CC)c1ccc2cc3c(oc2c1)c(C#N)c(=N)n1c2ccccc2nc31 ++

---

# System: central nervous system tissues of juvenile zebrafish (7 dpf)
# assay-explanation: Labeling the central nervous system tissue of live 7 dpf juvenile zebrafish by immersion in labeling solution
# condition: juvenile zebrafish, labeling solution 1 μg/mL, one hour (Table 2)
recorded-metric: Fluorescence sensitivity

Can you share its Fluorescence sensitivity? I mean this compound: CCN(CC)c1ccc2cc(-c3nc4ccc(C)cc4o3)c(=O)oc2c1 ++

What value of Fluorescence sensitivity has been reported for the following compound? COc1cccc2cc(-c3nc4ccccc4[nH]3)c(=O)oc12 +

Fluorescence sensitivity lookup needed for COc1ccc2cc(-c3nc4ccccc4[nH]3)c(=O)oc2c1 , thanks. +

What Fluorescence sensitivity value was documented for this compound, N=c1oc2ccc3ccccc3c2cc1-c1nc2ccccc2[nH]1 ? +

Entry CCN(CC)c1ccc2cc(-c3nc4ccccc4[nH]3)c(=N)oc2c1 : reported Fluorescence sensitivity = ? ++

More entries:
Quick one: Fluorescence sensitivity of O=c1oc2ccc3ccccc3c2cc1-c1nc2ccccc2[nH]1 ? +

What value of Fluorescence sensitivity has been reported for the following compound? Cc1ccc2oc(=O)c(-c3nc4ccccc4[nH]3)cc2c1 +

Given CCN(CC)c1ccc2cc(-c3nc4ccccc4s3)c(=O)oc2c1 , state its recorded Fluorescence sensitivity. ++

GET /values?readout=Fluorescence sensitivity&item= CCCN(CCC)c1ccc2cc(-c3nc4ccccc4[nH]3)c(=O)oc2c1 ++

Please give the measured Fluorescence sensitivity for this compound: COc1ccc2cc(-c3nc4ccccc4[nH]3)c(=N)oc2c1 +

For the compound CCN(CC)c1ccc2cc(-c3nc4cc(Cl)ccc4o3)c(=O)oc2c1 , what Fluorescence sensitivity is on record? +

---

# assay-explanation: Excitation and fluorescence wavelength by FL4500 fluorescence spectrophotometer
# condition: 5 ηM DMSO solution (Examples 35 to 46)
recorded-metric: Excitation wavelength λex
Number, no unit, nothing else.

These recorded examples may help you get a feel for the data.
Param item = COc1ccc2cc(N3c4ccc(/C=C5/SC(=S)N(CCC(=O)O)C5=O)cc4C4CCCC43)ccc2c1 (stereo not drawn) ; retrieve measured Excitation wavelength λex. 521

Fill in the blank: the reported Excitation wavelength λex of O=C(O)CCN1C(=O)/C(=C\c2ccc3c(c2)C2CCCC2N3Cc2ccccc2)SC1=S (stereo not drawn) is ____. 510

Could you share which Excitation wavelength λex value was measured for O=C(O)CCN1C(=O)/C(=C\c2ccc3c(c2)C2CCCC2N3c2ccccc2)SC1=S (stereo not drawn) ? 502

Can you share its Excitation wavelength λex? I mean this molecule: CSc1ccc(N2c3ccc(/C=C4/SC(=S)N(CCC(=O)O)C4=O)cc3C3CCCC32)cc1 (stereo not drawn) 518

Can you look up the measured Excitation wavelength λex of CCN1c2ccc(/C=C3/SC(=S)N(CCC(=O)O)C3=O)cc2CC1C (stereo not drawn) for me? 509

Next:
Suppose we examine the molecule COc1ccc(N2c3ccc(/C=C4/SC(=S)N(CCC(=O)O)C4=O)cc3C3CCCC32)cc1 (stereo not drawn) ; what Excitation wavelength λex value has been reported? 521

For the molecule CN1c2ccc(/C=C3/SC(=S)N(CCC(=O)O)C3=O)cc2C2CCCC21 (stereo not drawn) , what Excitation wavelength λex is on record? 517

Give the measured Excitation wavelength λex of CCN1c2ccc(/C=C/C=C3/SC(=S)N(CCC(=O)O)C3=O)cc2C2CCCC21 (stereo not drawn) . 564

# Excitation wavelength λex lookup, item CCn1c2ccccc2c2cc(/C=C3/SC(=S)N(CCC(=O)O)C3=O)ccc21 452

Reported Excitation wavelength λex for O=C(O)CCN1C(=O)/C(=C\c2cc(Br)c3c(c2)C2CCCC2N3c2ccc(Br)cc2)SC1=S (stereo not drawn) : what is it? 474

// returns reported Excitation wavelength λex for input CCCN1c2ccc(/C=C3/SC(=S)N(CCC(=O)O)C3=O)cc2C2CCCC21 (stereo not drawn) 519

Quick check: Excitation wavelength λex of CCN1CCc2cc(/C=C3/SC(=S)N(CCC(=O)O)C3=O)ccc21 ? 510

---

Reported λem values for a set of molecules
# assay-explanation: Excitation and fluorescence wavelength by FL4500 fluorescence spectrophotometer
# condition: aqueous solution, 10 mg/mL DMSO solution diluted 500-fold with distilled water
Just the number.

Reference set (6 entries):
Look at this molecule and give its reported λem. CCN1c2ccc(/C=C3/SC(=S)N(CCC(=O)O)C3=O)cc2C2CCCC21 (stereo not shown) 604

Query: λem; subject: Cn1c(=O)cc2c3c(c(NC4CCCCC4)ccc31)C(=O)c1ccccc1-2 619

Entry CCN(CC)c1ccc2cc3c(oc2c1)c(C#N)c(=O)n1c2ccccc2nc31 has what λem? 576

Request the reported λem associated with CCCCNc1ccc2c3c(cccc13)C(=O)N(CCCC)C2=O 551

Fill in the blank: the reported λem of CCN1C(=S)N(c2ccccc2)C(=O)/C1=C/C=C1/Sc2ccccc2N1CC is ____. 560

Request the reported λem associated with CCN(CC)c1ccc2cc3c(oc2c1)c(C#N)c(=N)n1c2ccccc2nc31 577

# evaluate next
Name the recorded λem for Cn1c(=O)cc2c3c(c(NCc4ccccc4)ccc31)C(=O)c1ccccc1-2 . 556

---

# assay-explanation: Excitation and fluorescence wavelength by FL4500 fluorescence spectrophotometer
# condition: aqueous solution, 10 mg/mL DMSO solution diluted 500-fold with distilled water (Table 2)
recorded-metric: Fluorescence wavelength λem
API note: the answer field is a bare number with no unit suffix.

Worked set:
Look up Fluorescence wavelength λem for this compound: N=c1oc2ccc3ccccc3c2cc1-c1nc2ccccc2[nH]1 490

Quick one: Fluorescence wavelength λem for CCN(CC)c1ccc2cc(-c3nc4ccccc4s3)c(=O)oc2c1 ? 555

Value lookup for Fluorescence wavelength λem; key = COc1cccc2cc(-c3nc4ccccc4[nH]3)c(=O)oc12 510

I would be grateful if you could share the reported Fluorescence wavelength λem for COc1ccc2cc(-c3nc4ccccc4[nH]3)c(=O)oc2c1 . 470

Any idea what Fluorescence wavelength λem was measured for CCCN(CCC)c1ccc2cc(-c3nc4ccccc4[nH]3)c(=O)oc2c1 ? 509

New cases:
Look up Fluorescence wavelength λem: Cc1ccc2oc(=O)c(-c3nc4ccccc4[nH]3)cc2c1 490

Dear colleague, I am looking for the recorded Fluorescence wavelength λem of the following compound: CCN(CC)c1ccc2cc(-c3nc4ccccc4[nH]3)c(=N)oc2c1 514

# get_value(readout='Fluorescence wavelength λem', item= CCN(CC)c1ccc2cc(-c3nc4cc(Cl)ccc4o3)c(=O)oc2c1 ) 476

Would you kindly share the measured Fluorescence wavelength λem for O=c1oc2ccc3ccccc3c2cc1-c1nc2ccccc2[nH]1 ? 540

Fluorescence wavelength λem lookup needed for CCN(CC)c1ccc2cc(-c3nc4ccc(C)cc4o3)c(=O)oc2c1 , thanks. 504

Name the reported Fluorescence wavelength λem value associated with the compound COc1ccc2cc(-c3nc4ccccc4[nH]3)c(=N)oc2c1 470
